# Tested on: 282377-053-R-J1-PDC complex spheroid viability
# assayComment: Anticancer human tumor 282377-053-R-J1-PDC patient-derived colon adenocarcinoma cell line growth inhibition [RAS]
# conditionDescription: second compound 1 µM; first compound 0.1 µM; stronger effect = lower value
Overview of reported viability, T/C across a group of compounds:
The reply should be a number in %, with the unit left off.

The examples below pair each entry with its known result.
- CC(Nc1ccc2c(c1)OCCn1cc(N3C(=O)OCC3C(F)F)nc1-2)C(N)=O (stereo not drawn) + C#Cc1c(F)ccc2cc(O)cc(-c3ncc4c(N5CC6CCC(C5)N6)nc(OCC56CCCN5CC(F)C6)nc4c3F)c12: 97.8
- Cc1nc(N2CCC3(CC2)COC(C)C3N)c(CO)nc1Sc1ccnc(N)c1Cl (stereo not drawn) + C#Cc1c(F)ccc2cc(O)cc(-c3ncc4c(N5CC6CCC(C5)N6)nc(OCC56CCCN5CC(F)C6)nc4c3F)c12: 110

Turning now to a further compound:
API: value(readout=viability, T/C, system=282377-053-R-J1-PDC complex spheroid viability) for record C[C@@H](NC(=O)c1ncnc(N)c1Cl)c1ncc(C(=O)Nc2cc(C(F)(F)F)c(Cl)cn2)s1 + C=CC(=O)N1CCN(c2nc(OCC3CCCN3C)nc3c(F)c(-c4nc(N)cc(C)c4C(F)(F)F)c(Cl)cc23)C(C)C1
90.3

---

The reader will find reported pIC50 values listed item by item below.
# Tested on: 282377-053-R-J1-PDC complex spheroid viability
# assayComment: Anticancer human tumor 282377-053-R-J1-PDC cell line growth inhibition [RAS];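 note: spheroids exposed to agents for seven days before readout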
# conditionDescription: curve of first compound; second compound 0.03 µM
# Text: RAS pathway inhibitors in Combinations in Complex Spheroids A high-throughput screen of multi-cell type tumor spheroids was designed to identify active combinations of RAS pathway inhibitors and targeted small molecules. Complex spheroids include a stromal component modeled by human endothelial cells (HUVEC) and fibroblasts modeled by human mesenchymal stem cells (MSCs). […] Compounds. […] If the clinical Cmax for an agent had not been determined, the highest concentration tested was 10 microM. […]
pIC50: −log10 of the molar value.

Field: example entries. Status: answers known.
* C[C@@H](NC(=O)c1ncnc(N)c1Cl)c1ncc(C(=O)Nc2cc(C(F)(F)F)c(Cl)cn2)s1 + CCn1c(-c2cc(N3CCN(C)CC3)cnc2C(C)OC)c2c3cc(ccc31)-c1csc(n1)CC(NC(=O)C1CC1C)C(=O)N1CCCC(N1)C(=O)OCC(C)(C)C2 | < 5.00
* NC1c2ccccc2OC12CCN(c1cnc3c(N4CCCc5ncccc54)n[nH]c3n1)CC2 (centres undefined) + CCn1c(-c2cccnc2C(C)OC)c2c3cc(ccc31)N1CCOC(CC(NC(=O)C(C(C)C)N(C)C(=O)C3(F)CCN(C(=O)C#CC(C)(C)N(C)C)CC3)C(=O)N3CCCC(N3)C(=O)OCC(C)(C)C2)C1 | < 5.00
* CCC(CC)c1cc(NC2CCC(N)C2)n2nccc2n1 (centres undefined) + CCn1c(-c2cc(N3CCN(C)CC3)cnc2C(C)OC)c2c3cc(ccc31)-c1csc(n1)CC(NC(=O)C1CC1C)C(=O)N1CCCC(N1)C(=O)OCC(C)(C)C2 | 5.82

Next:
Fill in the blank: the reported pIC50 of CCN1CCN(Cc2ccc(Nc3ncc(F)c(-c4cc(F)c5nc(C)n(C(C)C)c5c4)n3)nc2)CC1 + CCn1c(-c2cc(N3CCN(C)CC3)cnc2C(C)OC)c2c3cc(ccc31)-c1csc(n1)CC(NC(=O)C1CC1C)C(=O)N1CCCC(N1)C(=O)OCC(C)(C)C2 is ____.
< 6.00
